# Tested on: Plasmodium falciparum
# protocol.details: Antimicrobial activity against Plasmodium falciparum FCM29 harboring Pfcrt, Pfmdr1, Pfmrp, and Pfnhe-1 polymorphisms assessed as growth inhibition after 48 hrs by scintillation counting
# Type: functional, organism-based
# condition.notes: FCM29, 48 h
measured.attribute: IC50 (nM)
Response body: numeric value in nM, unit text excluded.

Give Plasmodium falciparum IC50 for the following compound: `C=C[C@H]1CN2CC[C@H]1C[C@H]2[C@H](O)c1ccnc2ccc(OC)cc12`
580

---

# System: Plasmodium falciparum
# protocol.details: Antimicrobial activity against Plasmodium falciparum ms4760-7 assessed as growth inhibition after 48 hrs by scintillation counting
# condition.notes: ms4760-7, 48 h
measured.attribute: IC50 (nM)
Response body: numeric value in nM, unit text excluded.

Give Plasmodium falciparum IC50 for the following compound: C=C[C@H]1CN2CC[C@H]1C[C@H]2[C@H](O)c1ccnc2ccc(OC)cc12 [QUININE]
764
